target: T1, biotinylated CD3 epsilon:delta heterodimer protein (Amsbio AMS.CDD-H52WO) (Homo sapiens (Human), UniProt P07766 23-126; P04234 22-105); assay: BLI (Octet), CD3 on SA sensor, Fab analyte;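 note: fab analyte at several concentrations up to 300 nM, association 100 s then 300 s dissociation in buffer, biosensors blocked with biocytin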
T1 construct: also called CD3 heterodimer
If the reported koff equals or exceeds 0.004 s⁻¹, assign 1. If not, assign 0.

binder: huSP34.34.12 Fab-HF (Fab, V domains shown, also called HC34+LC12) VH: EVQLVESGGGLVQPGGSLRLSCAASGFTFNTYAMNWVRQAPGKGLEWVGRIRSKYNNYATYYAASVKGRFTISRDDSKNSLYLQMNSLKTEDTAMYYCVRHGNFGHSYVSWFAYWGQGTLVTVSS VL: QAVVTQPPSLTVSPGGTVTLTCGSSTGAVTTGHYANWVQQKPGQAPRGLIGGTNKRAPWTPARFSGSLSGGKAALTISGAQPEDEAEYYCALWYSNRWVFGGGTKLTVL
assignedClass: 0

binder: huSP34.35.10 Fab-HF (Fab, V domains shown, also called HC35+LC10) VH: EVQLVESGGGLVQPGGSLRLSCAASGFTFNDYAMNWVRQAPGKGLEWVGRTRSKYNNYATYYAASVKGRFTISRDDSKNSLYLQMNSLKTEDTAMYYCVRHGNFGHSYVSWFAYWGQGTLVTVSS VL: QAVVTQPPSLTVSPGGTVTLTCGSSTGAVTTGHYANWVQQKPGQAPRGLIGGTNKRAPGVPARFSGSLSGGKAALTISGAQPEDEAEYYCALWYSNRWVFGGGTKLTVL
assignedClass: 1

binder: huSP34.34.6 Fab-HF (Fab, V domains shown, also called HC34+LC6) VH: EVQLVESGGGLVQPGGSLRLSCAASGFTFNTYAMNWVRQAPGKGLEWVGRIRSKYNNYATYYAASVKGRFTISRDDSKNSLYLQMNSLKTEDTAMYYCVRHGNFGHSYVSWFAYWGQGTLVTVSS VL: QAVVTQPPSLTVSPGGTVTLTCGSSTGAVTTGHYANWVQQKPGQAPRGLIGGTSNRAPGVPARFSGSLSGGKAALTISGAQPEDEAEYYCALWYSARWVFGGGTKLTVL
assignedClass: 0

binder: huSP34.3.13 Fab-HF (Fab, V domains shown, also called HC3+LC13) VH: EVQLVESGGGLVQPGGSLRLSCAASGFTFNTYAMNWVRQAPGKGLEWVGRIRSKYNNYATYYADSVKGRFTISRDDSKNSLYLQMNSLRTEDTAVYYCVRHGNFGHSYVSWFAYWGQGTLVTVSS VL: QAVVTQEPSLTVSPGGTVTLTCGSSTGAVTTGHYANWVQQKPGQAPRGLIGGTSNRAPGVPARFSGSLLGGKAALTISGAQPEDEAEYYCALWYSNRWVFGGGTKLTVL
assignedClass: 0

binder: huSP34.35.12 Fab-H (Fab, V domains shown, also called HC35+LC12) VH: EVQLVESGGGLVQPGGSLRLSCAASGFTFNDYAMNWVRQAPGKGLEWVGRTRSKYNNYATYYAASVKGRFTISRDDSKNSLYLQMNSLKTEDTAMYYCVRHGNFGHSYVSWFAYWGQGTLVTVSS VL: QAVVTQPPSLTVSPGGTVTLTCGSSTGAVTTGHYANWVQQKPGQAPRGLIGGTNKRAPWTPARFSGSLSGGKAALTISGAQPEDEAEYYCALWYSNRWVFGGGTKLTVL
assignedClass: 1

Values compiled from patent US20230056252A1.
